TEST DESCRIPTION: yeast display, Sf9 membrane polyspecificity reagent, FACS + sequencing; frameworks hold sequencing errors
ENDPOINT NAME: polyreactivity (PSR sort gate)

Example entries begin here.
QVQLVESGGGLVQAGGSLRLSCAASGRTFSPYALGWSRKAPGKERELVAAITSRGSNTFYADSVKGRFTISRDNAKNTVYLQMNSLKPEDTAVYYCNKYTIVSRYDYWGQGTQVTVSS high polyreactivity
QVQLVESGGGLVQAGGSLRLSCAASGFTFWPNAMGWYRQAPGKERELVAAINWSGGSTYYADSVKGRFTISRDNAKNTVFLQLNSLKPEDTAVYYCAAVSYDWYVGYEFWGQGTQVTVSS low polyreactivity
QVQLVESGGGLVQAGGSLRLSCAASGRIFRRYAMGWYRQAPGKEREFVAAISTSGGSTYYADSVKGRFTISRDNAKNTVYLQMNSLKPEDTAVYYCAKRFIYGRYNYWGQGTQVTVSS high polyreactivity
QVQLLESGGGLVQAGGSHRLSCASSGRTFSRYAMGWYRQAPGKERELVAAISYSGGSTYADSVKGRFTISRDNAKNTVYLQMIRLKPEDTAVYYCAAEKYVYWFSYQYGYWGQGTQVSVSS high polyreactivity
QVQLVESGGGLVQAGGSLRLICAASGSIFFYYAMGWYRQAPGKERELVAAITKIGVGTFYADSVKGRFTISRDNAKNTVYLQMNSLKPEDTAVYYCNARTAWEGYDYWGQGTQVTVSS low polyreactivity

**Query** If you can, please state the reported polyreactivity (PSR sort gate) value of QVQLVESGGGLVQAGGSLRLSCAASGFIFSRYAMGWYRQAPGKERELVAAISGRGTSTYYADSVKGRFTISRDNAKNTVYLQMNSLKPEDTAVYYCNTYSQPKWGTSDYDYWGQGTQVTVSS .
**Result** high polyreactivity

**Query** Continue with QVQLVESGGGLVQAGGSLRLSCAASGRTFLYYAMGWYRQEPGKERELVAAITGRGGSTYNADSVKGLFTISRDNAQNTVYLKMNILKPEDTAVYYCAARDNWIRRDGYWGQGTQVTVSS
**Result** high polyreactivity
